tested on: HOP-62 multicell spheroids with HUVEC/MSC, viability; experiment: Anticancer human tumor HOP-62 cell line growth inhibition [KRAS2]; conditions: second compound 3.16 µM; first compound 3.16 µM; active means viability on the fitted dose curve at most 10% of control; inactive means the rest;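 further: viability read after a week of compound exposure; 100% = DMSO vehicle-treated spheroids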
Labels: 1 (yes) (active), 0 (no) (inactive)

>>> labelclass("COc1cc2nccc(Oc3ccc(NC(=O)C4(C(=O)Nc5ccc(F)cc5)CC4)cc3)c2cc1OC + CNCc1ccccc1-c1csc(C(C)Nc2nc(C)nc3cc(OC)c(OC)cc23)c1")
"1 (yes)"
>>> labelclass("Cn1nccc1Nc1nccc(-c2cc3c(s2)C(C)(C)N(CCN2CCOCC2)C3=O)n1 + C=CC(=O)N1CCN(c2nc(=O)n(-c3c(C)ccnc3C(C)C)c3nc(-c4c(O)cccc4F)c(F)cc23)C(C)C1")
"0 (no)"
>>> labelclass("O=C(c1cc(Cc2n[nH]c(=O)c3ccccc23)ccc1F)N1CCN(C(=O)C2CC2)CC1 + C=CC(=O)N1CCN(c2nc(=O)n(-c3c(C)ccnc3C(C)C)c3nc(-c4c(O)cccc4F)c(F)cc23)C(C)C1")
"0 (no)"
>>> labelclass("COc1cc(Nc2ncc3c(n2)-c2ccc(Cl)cc2C(c2c(F)cccc2OC)=NC3)ccc1C(=O)O + C=CC(=O)N1CCN(c2nc(OCC3CCCN3C)nc3c2CCN(c2cccc4cccc(C)c24)C3)CC1CC#N")
"1 (yes)"
>>> labelclass("COC(=O)c1ccc2c(C(=Nc3ccc(N(C)C(=O)CN4CCN(C)CC4)cc3)c3ccccc3)c(O)[nH]c2c1 + C=CC(=O)N1CCN(c2nc(=O)n(-c3c(C)ccnc3C(C)C)c3nc(-c4c(O)cccc4F)c(F)cc23)C(C)C1")
"0 (no)"
